- Test system: mice
- assay.notes: General Symptoms (Side Effects) in mice
- Assay type: in vivo
- Set-up: key: +++: marked; ++: moderate; +: mild; -: nondetected
- assay.conditions: i.p., observed for 4 hours, peripheral effect
- Experimental: General Symptoms (Side Effects) Four mice were used for each group. Mice were placed in stainless steel cages (13×18×25 cm) and after a 1-hr habitation period the compounds were administered. […] Peripheral and central effects of the compounds were estimated with the incidences of diarrhea, salivation and mydriasis and with the incidences of tremor and sedation and a grade of hypothermia, respectively. […]
readout.name: Salivation

CON1C(=O)CC2(CCNCC2)C1=O: +++
CON1C(=O)CC2(CCN(C)CC2)C1=O.Cl: +++
CCN1C(=O)CC2(CCN(C)CC2)C1=O [RS-86, reference compound]: +++
CON1C(=O)CC2(CCN(C(=O)OCCBr)CC2)C1=O: +
